Data credit: patent EP3409295A1

method description: in vivo
experimental conditions: female, SD, rat, iv, 5 mg/kg
I'd be grateful if you could share measured level at 3 h for these entries.
Write it as a number; the unit ng/mL goes unstated.

query: Retrieve level at 3 h measured for COc1ccc2c3c1O[C@H]1[C@@H](OCCOCCOCCOCCOCCOCCO[C@H]4C=C[C@H]5[C@H]6Cc7ccc(OC)c8c7[C@@]5(CCN6C)[C@H]4O8)C=C[C@H]4[C@@H](C2)N(C)CC[C@@]341 and print it.
result: 67

query: Retrieve level at 3 h measured for CN1CC[C@]23c4c5ccc(O)c4O[C@H]2[C@@H](OCCOCCOCCOCCOCCOCCOCCO[C@H]2C=C[C@H]4[C@H]6Cc7ccc(O)c8c7[C@@]4(CCN6C)[C@H]2O8)C=C[C@H]3[C@H]1C5 and print it.
result: 71

query: Retrieve level at 3 h measured for CN1CC[C@]23c4c5ccc(O)c4O[C@H]2[C@@H](OCCOCCOCCOCCOCCOCCO[C@H]2C=C[C@H]4[C@H]6Cc7ccc(O)c8c7[C@@]4(CCN6C)[C@H]2O8)C=C[C@H]3[C@H]1C5 and print it.
result: 72

query: Retrieve level at 3 h measured for CN1CC[C@]23c4c5ccc(O)c4O[C@H]2[C@@H](OCCOCCOCCOCCOCCOCCOCCOCCOCCO[C@H]2C=C[C@H]4[C@H]6Cc7ccc(O)c8c7[C@@]4(CCN6C)[C@H]2O8)C=C[C@H]3[C@H]1C5 and print it.
result: 101

query: Retrieve level at 3 h measured for CN1CC[C@]23c4c5ccc(O)c4O[C@H]2[C@@H](OCCOCCOCCOCCOCCO[C@H]2C=C[C@H]4[C@H]6Cc7ccc(O)c8c7[C@@]4(CCN6C)[C@H]2O8)C=C[C@H]3[C@H]1C5 and print it.
result: 51

query: Retrieve level at 3 h measured for CN1CC[C@]23c4c5ccc(O)c4O[C@H]2[C@@H](OCCO[C@H]2C=C[C@H]4[C@H]6Cc7ccc(O)c8c7[C@@]4(CCN6C)[C@H]2O8)C=C[C@H]3[C@H]1C5 and print it.
result: 38

query: Retrieve level at 3 h measured for COc1ccc2c3c1O[C@H]1[C@@H](OCCOCCOCCOCCO[C@H]4C=C[C@H]5[C@H]6Cc7ccc(OC)c8c7[C@@]5(CCN6C)[C@H]4O8)C=C[C@H]4[C@@H](C2)N(C)CC[C@@]341 and print it.
result: 43

query: Retrieve level at 3 h measured for CN1CC[C@]23c4c5ccc(O)c4O[C@H]2[C@@H](OCCOCCOCCOCCOCCOCCOCCOCCO[C@H]2C=C[C@H]4[C@H]6Cc7ccc(O)c8c7[C@@]4(CCN6C)[C@H]2O8)C=C[C@H]3[C@H]1C5 and print it.
result: 90

----------
experimental conditions: intravenous administration, 10 mg/kg, SD rats
metric: T1/2
Please format your answer as a value with the unit trailing.

query: Retrieve T1/2 measured for CN1CC[C@]23c4c5ccc(O)c4O[C@H]2[C@@H](OCCOCCOCCOCCO[C@H]2C=C[C@H]4[C@H]6Cc7ccc(O)c8c7[C@@]4(CCN6C)[C@H]2O8)C=C[C@H]3[C@H]1C5 [α-6-O-PEG4-(morphine)2] and print it.
result: 4.71 h

query: Retrieve T1/2 measured for CN1CC[C@]23c4c5ccc(O)c4O[C@H]2[C@@H](OCCOCCOCCOCCOCCOCCO[C@H]2C=C[C@H]4[C@H]6Cc7ccc(O)c8c7[C@@]4(CCN6C)[C@H]2O8)C=C[C@H]3[C@H]1C5 [α-6-O-PEG6-(morphine)2] and print it.
result: 3.42 h

query: Retrieve T1/2 measured for CN1CC[C@]23c4c5ccc(O)c4O[C@H]2[C@@H](OCCOCCO[C@H]2C=C[C@H]4[C@H]6Cc7ccc(O)c8c7[C@@]4(CCN6C)[C@H]2O8)C=C[C@H]3[C@H]1C5 [α-6-O-PEG2-(morphine)2] and print it.
result: 2.88 h

query: Retrieve T1/2 measured for CN1CC[C@]23c4c5ccc(O)c4O[C@H]2[C@@H](OCCOCCOCCOCCOCCOCCOCCOCCOCCO[C@H]2C=C[C@H]4[C@H]6Cc7ccc(O)c8c7[C@@]4(CCN6C)[C@H]2O8)C=C[C@H]3[C@H]1C5 [α-6-O-PEG9-(morphine)2] and print it.
result: 8.33 h

query: Retrieve T1/2 measured for CN1CC[C@]23c4c5ccc(O)c4O[C@H]2[C@@H](OCCOCCOCCOCCOCCO[C@H]2C=C[C@H]4[C@H]6Cc7ccc(O)c8c7[C@@]4(CCN6C)[C@H]2O8)C=C[C@H]3[C@H]1C5 [α-6-O-PEG5-(morphine)2] and print it.
result: 3.71 h

query: Retrieve T1/2 measured for CN1CC[C@]23c4c5ccc(O)c4O[C@H]2[C@@H](OCCO[C@H]2C=C[C@H]4[C@H]6Cc7ccc(O)c8c7[C@@]4(CCN6C)[C@H]2O8)C=C[C@H]3[C@H]1C5 [α-6-O-PEG1-(morphine)2] and print it.
result: 2.59 h

query: Retrieve T1/2 measured for CN1CC[C@]23c4c5ccc(O)c4O[C@H]2[C@@H](OCCOCCOCCOCCOCCOCCOCCOCCO[C@H]2C=C[C@H]4[C@H]6Cc7ccc(O)c8c7[C@@]4(CCN6C)[C@H]2O8)C=C[C@H]3[C@H]1C5 [α-6-O-PEG8-(morphine)2] and print it.
result: 6.83 h

query: Retrieve T1/2 measured for CN1CC[C@]23c4c5ccc(O)c4O[C@H]2[C@@H](OCCOCCOCCO[C@H]2C=C[C@H]4[C@H]6Cc7ccc(O)c8c7[C@@]4(CCN6C)[C@H]2O8)C=C[C@H]3[C@H]1C5 [α-6-O-PEG3-(morphine)2] and print it.
result: 2.31 h

----------
experimental conditions: intravenous administration, 10 mg/kg, SD rats
I'd be grateful if you could share measured AUCINF for these entries.
Write it as a number; the unit ng·h/mL goes unstated.

query: Retrieve AUCINF measured for CN1CC[C@]23c4c5ccc(O)c4O[C@H]2[C@@H](OCCO[C@H]2C=C[C@H]4[C@H]6Cc7ccc(O)c8c7[C@@]4(CCN6C)[C@H]2O8)C=C[C@H]3[C@H]1C5 and print it.
result: 98

query: Retrieve AUCINF measured for CN1CC[C@]23c4c5ccc(O)c4O[C@H]2[C@@H](OCCOCCOCCOCCOCCOCCO[C@H]2C=C[C@H]4[C@H]6Cc7ccc(O)c8c7[C@@]4(CCN6C)[C@H]2O8)C=C[C@H]3[C@H]1C5 and print it.
result: 158

query: Retrieve AUCINF measured for CN1CC[C@]23c4c5ccc(O)c4O[C@H]2[C@@H](OCCOCCO[C@H]2C=C[C@H]4[C@H]6Cc7ccc(O)c8c7[C@@]4(CCN6C)[C@H]2O8)C=C[C@H]3[C@H]1C5 and print it.
result: 107

query: Retrieve AUCINF measured for CN1CC[C@]23c4c5ccc(O)c4O[C@H]2[C@@H](OCCOCCOCCOCCOCCOCCOCCOCCOCCO[C@H]2C=C[C@H]4[C@H]6Cc7ccc(O)c8c7[C@@]4(CCN6C)[C@H]2O8)C=C[C@H]3[C@H]1C5 and print it.
result: 259

query: Retrieve AUCINF measured for CN1CC[C@]23c4c5ccc(O)c4O[C@H]2[C@@H](OCCOCCOCCOCCOCCO[C@H]2C=C[C@H]4[C@H]6Cc7ccc(O)c8c7[C@@]4(CCN6C)[C@H]2O8)C=C[C@H]3[C@H]1C5 and print it.
result: 128

query: Retrieve AUCINF measured for CN1CC[C@]23c4c5ccc(O)c4O[C@H]2[C@@H](OCCOCCOCCOCCOCCOCCOCCOCCO[C@H]2C=C[C@H]4[C@H]6Cc7ccc(O)c8c7[C@@]4(CCN6C)[C@H]2O8)C=C[C@H]3[C@H]1C5 and print it.
result: 188

query: Retrieve AUCINF measured for CN1CC[C@]23c4c5ccc(O)c4O[C@H]2[C@@H](OCCOCCOCCO[C@H]2C=C[C@H]4[C@H]6Cc7ccc(O)c8c7[C@@]4(CCN6C)[C@H]2O8)C=C[C@H]3[C@H]1C5 and print it.
result: 112

query: Retrieve AUCINF measured for CN1CC[C@]23c4c5ccc(O)c4O[C@H]2[C@@H](OCCOCCOCCOCCO[C@H]2C=C[C@H]4[C@H]6Cc7ccc(O)c8c7[C@@]4(CCN6C)[C@H]2O8)C=C[C@H]3[C@H]1C5 and print it.
result: 137

----------
I'd be grateful if you could share measured tissue level at time at 10 min for these entries.
method description: in vivo
experimental conditions: female, SD, rat, iv, 5 mg/kg
Write it as a number; the unit ng/g goes unstated.

query: Retrieve tissue level at time at 10 min measured for CN1CC[C@]23c4c5ccc(O)c4O[C@H]2[C@@H](OCCOCCO[C@H]2C=C[C@H]4[C@H]6Cc7ccc(O)c8c7[C@@]4(CCN6C)[C@H]2O8)C=C[C@H]3[C@H]1C5 and print it.
result: 554

query: Retrieve tissue level at time at 10 min measured for CN1CC[C@]23c4c5ccc(O)c4O[C@H]2[C@@H](OCCOCCOCCOCCOCCO[C@H]2C=C[C@H]4[C@H]6Cc7ccc(O)c8c7[C@@]4(CCN6C)[C@H]2O8)C=C[C@H]3[C@H]1C5 and print it.
result: 125

query: Retrieve tissue level at time at 10 min measured for CN1CC[C@]23c4c5ccc(O)c4O[C@H]2[C@@H](OCCOCCOCCOCCOCCOCCOCCO[C@H]2C=C[C@H]4[C@H]6Cc7ccc(O)c8c7[C@@]4(CCN6C)[C@H]2O8)C=C[C@H]3[C@H]1C5 and print it.
result: 177

query: Retrieve tissue level at time at 10 min measured for CN1CC[C@]23c4c5ccc(O)c4O[C@H]2[C@@H](OCCOCCOCCOCCO[C@H]2C=C[C@H]4[C@H]6Cc7ccc(O)c8c7[C@@]4(CCN6C)[C@H]2O8)C=C[C@H]3[C@H]1C5 and print it.
result: 226

query: Retrieve tissue level at time at 10 min measured for CN1CC[C@]23c4c5ccc(O)c4O[C@H]2[C@@H](OCCOCCOCCOCCOCCOCCOCCOCCOCCO[C@H]2C=C[C@H]4[C@H]6Cc7ccc(O)c8c7[C@@]4(CCN6C)[C@H]2O8)C=C[C@H]3[C@H]1C5 and print it.
result: 152

query: Retrieve tissue level at time at 10 min measured for CN1CC[C@]23c4c5ccc(O)c4O[C@H]2[C@@H](OCCO[C@H]2C=C[C@H]4[C@H]6Cc7ccc(O)c8c7[C@@]4(CCN6C)[C@H]2O8)C=C[C@H]3[C@H]1C5 and print it.
result: 687

query: Retrieve tissue level at time at 10 min measured for CN1CC[C@]23c4c5ccc(O)c4O[C@H]2[C@@H](OCCOCCOCCOCCOCCOCCO[C@H]2C=C[C@H]4[C@H]6Cc7ccc(O)c8c7[C@@]4(CCN6C)[C@H]2O8)C=C[C@H]3[C@H]1C5 and print it.
result: 163

query: Retrieve tissue level at time at 10 min measured for CN1CC[C@]23c4c5ccc(O)c4O[C@H]2[C@@H](OCCOCCOCCO[C@H]2C=C[C@H]4[C@H]6Cc7ccc(O)c8c7[C@@]4(CCN6C)[C@H]2O8)C=C[C@H]3[C@H]1C5 and print it.
result: 387

query: Retrieve tissue level at time at 10 min measured for CN1CC[C@]23c4c5ccc(O)c4O[C@H]2[C@@H](OCCOCCOCCOCCOCCOCCOCCOCCO[C@H]2C=C[C@H]4[C@H]6Cc7ccc(O)c8c7[C@@]4(CCN6C)[C@H]2O8)C=C[C@H]3[C@H]1C5 and print it.
result: 140
